meta.source: paper PMC4300089

kobs values by entry
Target: Epac1 (Homo sapiens)
Construct: made in house
Sequence (O95398 192-923): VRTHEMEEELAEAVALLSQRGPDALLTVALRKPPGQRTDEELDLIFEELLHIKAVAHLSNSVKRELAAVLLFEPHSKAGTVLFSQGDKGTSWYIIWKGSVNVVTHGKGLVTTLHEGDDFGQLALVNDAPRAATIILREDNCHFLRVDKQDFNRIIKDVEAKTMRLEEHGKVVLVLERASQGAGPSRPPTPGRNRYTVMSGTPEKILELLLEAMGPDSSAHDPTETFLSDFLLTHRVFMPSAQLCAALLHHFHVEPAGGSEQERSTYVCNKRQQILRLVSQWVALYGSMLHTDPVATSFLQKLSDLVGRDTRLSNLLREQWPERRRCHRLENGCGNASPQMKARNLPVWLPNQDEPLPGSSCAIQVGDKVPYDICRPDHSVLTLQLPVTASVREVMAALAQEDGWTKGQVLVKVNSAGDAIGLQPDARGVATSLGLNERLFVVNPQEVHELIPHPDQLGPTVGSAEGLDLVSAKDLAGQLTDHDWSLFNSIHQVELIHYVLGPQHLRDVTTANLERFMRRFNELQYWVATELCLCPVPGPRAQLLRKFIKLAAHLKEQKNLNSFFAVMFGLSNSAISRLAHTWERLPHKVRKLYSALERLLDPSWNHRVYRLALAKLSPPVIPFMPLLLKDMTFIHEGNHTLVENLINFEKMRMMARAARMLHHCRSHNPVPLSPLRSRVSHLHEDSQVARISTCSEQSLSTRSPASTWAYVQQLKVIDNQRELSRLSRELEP
Assay: Epac activation assay, Epac1
Type: biochemical
Details: 0.8 μM compound
The reply should contain only the number, in s⁻¹.

Before answering, review these 3 worked examples.
{"molecule": "COC1C2OP(=O)(O)OCC2OC1n1c(Sc2ccc(Cl)cc2)nc2c(N)ncnc21 [D-007, 8-pCPT-2′-O-Me-cAMP, reference compound]", "kobs, s⁻¹": 0.00123}
{"molecule": "Nc1ncnc2c1nc(SCc1ccccc1)n2[C@@H]1O[C@@H]2CO[P@](O)(=S)O[C@H]2[C@H]1O", "kobs, s⁻¹": "2.8e-05"}
{"molecule": "Cc1ccc(CSc2nc3c(N)ncnc3n2[C@@H]2O[C@@H]3CO[P@](O)(=S)O[C@H]3[C@H]2O)cc1", "kobs, s⁻¹": "1.1e-05"}

Query molecule follows.
Look at this molecule and give its reported kobs. Nc1ncnc2c1ncn2[C@@H]1O[C@@H]2COP(=O)(O)O[C@H]2[C@H]1O [cAMP, reference compound]
4.7e-05
